- Tested on: T1 mature lipase
- procedure-text: Effect of metal ions, surfactants and inhibitors on lipase activity
- Type: biochemical, Geobacillus sp. strain T1
- assay-conditions: 5 mM (Pepstatin 1 mM), 50° C., 30 min
Where a SMILES comes first, the peptide text is derived from it. [ ]: non-standard residue; d: D form. The star is where a group is joined. Sta = CC(C)C[C@H](N)[C@@H](O)CC(=O)O; Isovaleryl = CC(C)CC(=O)*
readout-label: Effect of inhibitor on lipase activity

>  <compound>
OCCS

>  <system-under-test>
T1 mature lipase

>  <reported-value>
little inhibition effect

$$$$
>  <compound>
CC(C)CC(=O)N[C@H](C(=O)N[C@H](C(=O)N[C@@H](CC(C)C)[C@@H](O)CC(=O)N[C@@H](C)C(=O)N[C@@H](CC(C)C)[C@@H](O)CC(=O)O)C(C)C)C(C)C [Pepstatin] (Isovaleryl-VV[Sta]A[Sta]-OH)

>  <system-under-test>
T1 mature lipase

>  <reported-value>
strongly inhibited

$$$$
>  <compound>
O=S(=O)(F)Cc1ccccc1

>  <system-under-test>
T1 mature lipase

>  <reported-value>
strongly inhibited

$$$$
>  <compound>
O[C@@H](CS)[C@@H](O)CS

>  <system-under-test>
T1 mature lipase

>  <reported-value>
little inhibition effect

$$$$
